The origin of these recorded values is patent US20230026611A1.

molecular target: hERG channel (Homo sapiens); assay: hERG electrophysiology, automated whole-cell patch clamp (Patchliner) in CHO-K1 cells stably expressing hERG
Sequence (Q12809 whole entry): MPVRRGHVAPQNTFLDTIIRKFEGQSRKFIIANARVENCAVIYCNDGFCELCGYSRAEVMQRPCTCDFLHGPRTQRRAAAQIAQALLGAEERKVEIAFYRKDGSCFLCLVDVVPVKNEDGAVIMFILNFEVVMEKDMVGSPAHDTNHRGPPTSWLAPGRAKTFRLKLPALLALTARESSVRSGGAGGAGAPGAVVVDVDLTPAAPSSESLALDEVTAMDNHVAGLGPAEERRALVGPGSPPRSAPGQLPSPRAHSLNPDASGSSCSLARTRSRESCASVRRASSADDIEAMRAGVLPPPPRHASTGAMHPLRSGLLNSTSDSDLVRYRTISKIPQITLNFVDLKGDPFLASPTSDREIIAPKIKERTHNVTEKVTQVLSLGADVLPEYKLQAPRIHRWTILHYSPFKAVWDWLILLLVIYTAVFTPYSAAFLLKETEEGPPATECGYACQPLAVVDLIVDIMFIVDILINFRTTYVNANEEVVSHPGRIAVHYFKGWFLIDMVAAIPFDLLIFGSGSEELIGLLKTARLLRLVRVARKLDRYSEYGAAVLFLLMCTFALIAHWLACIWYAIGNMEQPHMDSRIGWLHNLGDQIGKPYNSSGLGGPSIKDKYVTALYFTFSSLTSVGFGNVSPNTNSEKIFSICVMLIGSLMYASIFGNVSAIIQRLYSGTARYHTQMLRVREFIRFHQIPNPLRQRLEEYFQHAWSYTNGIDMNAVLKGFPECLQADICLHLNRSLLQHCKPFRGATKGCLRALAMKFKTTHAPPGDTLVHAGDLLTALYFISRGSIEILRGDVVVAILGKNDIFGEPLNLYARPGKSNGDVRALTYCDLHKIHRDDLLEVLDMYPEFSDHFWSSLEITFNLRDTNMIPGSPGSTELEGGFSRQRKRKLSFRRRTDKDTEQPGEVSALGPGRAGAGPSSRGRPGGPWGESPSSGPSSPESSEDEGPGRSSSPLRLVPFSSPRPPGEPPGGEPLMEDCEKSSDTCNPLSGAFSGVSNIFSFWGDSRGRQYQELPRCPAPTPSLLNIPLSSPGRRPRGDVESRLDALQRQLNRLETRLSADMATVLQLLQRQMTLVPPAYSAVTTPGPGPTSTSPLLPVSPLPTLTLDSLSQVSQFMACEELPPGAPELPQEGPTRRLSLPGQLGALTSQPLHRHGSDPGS
measured.property: IC50

{"columns": ["compound", "data.value"],
 "data": [
  ["NC(=O)C[C@@H]1C[C@H](c2c(O)ccc(Cl)c2Cl)CCN1 (single isomer, unassigned)", "> 30 µM"],
  ["NC(=O)N1CCC(c2c(O)cc(Cl)c(Cl)c2Cl)CC1", "< 30 µM"]
]}

Problem: For the compound shown here, O=C(NC1CNC1)[C@H]1CC[C@H](c2c(O)ccc(Cl)c2Cl)N1 (single isomer, unassigned) , give the reported IC50.
Result: > 100 µM

Problem: Bench note: what IC50 did Oc1cc(Cl)c(Cl)cc1C1CCNC(C2CC2)C1 (centres unmarked) show?
Result: < 30 µM

Problem: Recorded IC50 for CN1CCC(c2cc(Cl)c(Cl)cc2O)CC1 , please?
Result: < 30 µM
